Molecular target: Sodium-dependent dopamine transporter (Rattus norvegicus, UniProt P23977)
pIC50: −log10 of the molar value.
Assign T whenever pIC50 does not fall below 8; assign F whenever it does.

Does COC(=O)C1C(c2ccc(C(C)C)cc2)CC2CCC1N2C (centres undefined) have a reported pIC50 of at least 8?
F

Does C=Cc1ccc(C2CC3CCC(N3)C2C(=O)OC)cc1 (centres undefined) have a reported pIC50 of at least 8?
T

Does C#Cc1ccc(C2CC3CCC(C2C(=O)OC)N3C)cc1 (centres undefined) have a reported pIC50 of at least 8?
T

Does C/C=C\c1ccc(C2CC3CCC(N3)C2C(=O)OC)cc1 (cis isomer) have a reported pIC50 of at least 8?
F

Does CCc1ccc(C2CC3CCC(C2C(=O)OC)N3C)cc1 (centres undefined) have a reported pIC50 of at least 8?
F

Does CC#Cc1ccc(C2CC3CCC(C2C(=O)OC)N3C)cc1 (centres undefined) have a reported pIC50 of at least 8?
T

Does C=C(C)c1ccc(C2CC3CCC(N3)C2C(=O)OC)cc1 (centres undefined) have a reported pIC50 of at least 8?
F

* * *

Biological target: Sodium-dependent dopamine transporter (Rattus norvegicus, UniProt P23977)
pIC50: −log10 of the molar value.
Recorded pIC50 determines the label; the label ranges are 1: < 7; 2: ≥ 7 and < 8; 3: ≥ 8

Lab note: sort C=Cc1ccc(C2CC3CCC(C2C(=O)OC)N3C)cc1 (configuration not stated) into the matching pIC50 band.
3

Lab note: sort C=CCc1ccc(C2CC3CCC(C2C(=O)OC)N3C)cc1 (configuration not stated) into the matching pIC50 band.
2

Lab note: sort COC(=O)C1C2CCC(CC1c1ccc(C(C)C)cc1)N2 (configuration not stated) into the matching pIC50 band.
1

Lab note: sort C/C=C/c1ccc(C2CC3CCC(N3)C2C(=O)OC)cc1 (trans isomer) into the matching pIC50 band.
2

Lab note: sort C#Cc1ccc(C2CC3CCC(N3)C2C(=O)OC)cc1 (configuration not stated) into the matching pIC50 band.
3

Lab note: sort CCCc1ccc(C2CC3CCC(N3)C2C(=O)OC)cc1 (configuration not stated) into the matching pIC50 band.
1

Lab note: sort COC(=O)[C@@H]1C2CCC(C[C@@H]1OC(=O)c1ccccc1)N2 (some centres not stated) into the matching pIC50 band.
1

Lab note: sort C/C=C/c1ccc(C2CC3CCC(C2C(=O)OC)N3C)cc1 (configuration not stated) into the matching pIC50 band.
3

Lab note: sort CCc1ccc(C2CC3CCC(N3)C2C(=O)OC)cc1 (configuration not stated) into the matching pIC50 band.
2

Lab note: sort C=CCc1ccc(C2CC3CCC(N3)C2C(=O)OC)cc1 (configuration not stated) into the matching pIC50 band.
2

* * *

Molecular target: Monoamine transporters; serotonin & dopamine (Rattus norvegicus) (UniProt P31652+P23977)
Sequence (P23977 whole entry, looked up): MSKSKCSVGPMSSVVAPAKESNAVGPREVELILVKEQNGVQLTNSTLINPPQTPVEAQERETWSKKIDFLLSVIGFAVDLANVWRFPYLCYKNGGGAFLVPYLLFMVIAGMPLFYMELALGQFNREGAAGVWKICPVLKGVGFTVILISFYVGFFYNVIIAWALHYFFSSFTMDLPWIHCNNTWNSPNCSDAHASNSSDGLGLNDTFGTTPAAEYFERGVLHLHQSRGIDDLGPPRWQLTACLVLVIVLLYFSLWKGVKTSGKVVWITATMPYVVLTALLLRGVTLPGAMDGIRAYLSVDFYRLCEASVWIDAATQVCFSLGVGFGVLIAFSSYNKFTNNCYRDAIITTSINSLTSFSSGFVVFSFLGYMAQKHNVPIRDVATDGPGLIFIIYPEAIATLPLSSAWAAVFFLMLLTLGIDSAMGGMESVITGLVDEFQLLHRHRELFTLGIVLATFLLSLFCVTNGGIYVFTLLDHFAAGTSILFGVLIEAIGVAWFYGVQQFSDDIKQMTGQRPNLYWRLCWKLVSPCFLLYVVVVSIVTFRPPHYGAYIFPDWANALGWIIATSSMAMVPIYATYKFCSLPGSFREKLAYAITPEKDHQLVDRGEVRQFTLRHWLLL
Sequence (P31652 whole entry, looked up): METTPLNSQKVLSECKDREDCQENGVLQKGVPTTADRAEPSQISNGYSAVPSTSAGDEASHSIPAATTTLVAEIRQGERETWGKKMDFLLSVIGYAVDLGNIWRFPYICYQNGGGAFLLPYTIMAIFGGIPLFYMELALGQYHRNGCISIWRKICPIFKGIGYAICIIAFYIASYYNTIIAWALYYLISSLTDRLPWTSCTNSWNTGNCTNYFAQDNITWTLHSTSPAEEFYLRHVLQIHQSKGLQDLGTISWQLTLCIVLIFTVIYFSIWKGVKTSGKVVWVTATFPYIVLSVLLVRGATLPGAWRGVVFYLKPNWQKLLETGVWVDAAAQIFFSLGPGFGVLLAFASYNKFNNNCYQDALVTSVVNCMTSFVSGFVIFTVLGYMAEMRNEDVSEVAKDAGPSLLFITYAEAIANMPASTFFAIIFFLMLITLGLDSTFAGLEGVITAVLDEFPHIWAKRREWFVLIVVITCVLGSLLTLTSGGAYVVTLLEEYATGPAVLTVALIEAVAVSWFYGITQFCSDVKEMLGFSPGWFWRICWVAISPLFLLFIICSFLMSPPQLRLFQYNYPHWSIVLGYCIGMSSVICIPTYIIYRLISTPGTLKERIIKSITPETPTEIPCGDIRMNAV
Experiment: Selectivity for dopamine and serotonin transporters
Format: protein assay
The label is yes for Ratio below 1 and no for Ratio equal to or exceeding 1.

Here's an entry: CCCc1ccc(C2CC3CCC(C2C(=O)OC)N3C)cc1 (stereo not drawn) . Is its Ratio below 1?
yes

Here's an entry: COC(=O)C1C(c2ccc(C(C)C)cc2)CC2CCC1N2C (stereo not drawn) . Is its Ratio below 1?
no

Here's an entry: CC#Cc1ccc(C2CC3CCC(C2C(=O)OC)N3C)cc1 (stereo not drawn) . Is its Ratio below 1?
yes

Here's an entry: C=CCc1ccc(C2CC3CCC(N3)C2C(=O)OC)cc1 (stereo not drawn) . Is its Ratio below 1?
no

Here's an entry: C#Cc1ccc(C2CC3CCC(C2C(=O)OC)N3C)cc1 (stereo not drawn) . Is its Ratio below 1?
yes

Here's an entry: C/C=C/c1ccc(C2CC3CCC(N3)C2C(=O)OC)cc1 (trans isomer) . Is its Ratio below 1?
no

Here's an entry: C=CCc1ccc(C2CC3CCC(C2C(=O)OC)N3C)cc1 (stereo not drawn) . Is its Ratio below 1?
no

Here's an entry: C#Cc1ccc(C2CC3CCC(N3)C2C(=O)OC)cc1 (stereo not drawn) . Is its Ratio below 1?
yes

* * *

Biological target: Monoamine transporters; serotonin & dopamine (Rattus norvegicus) (UniProt P31652+P23977)
Experiment: Selectivity for dopamine and serotonin transporters
Type: protein assay
Can you tell me Ratio for the items I'm about to list?
In your answer, state the number alone without any accompanying words.

Reported Ratio of C=Cc1ccc(C2CC3CCC(C2C(=O)OC)N3C)cc1 (configuration not stated) : 0.13

Reported Ratio of C/C=C\c1ccc(C2CC3CCC(N3)C2C(=O)OC)cc1 (cis isomer) : 28

Reported Ratio of CC#Cc1ccc(C2CC3CCC(N3)C2C(=O)OC)cc1 (configuration not stated) : 1.93

Reported Ratio of C=Cc1ccc(C2CC3CCC(N3)C2C(=O)OC)cc1 (configuration not stated) : 0.77

Reported Ratio of CCc1ccc(C2CC3CCC(C2C(=O)OC)N3C)cc1 (configuration not stated) : 1.9

Reported Ratio of C/C=C\c1ccc(C2CC3CCC(C2C(=O)OC)N3C)cc1 (configuration not stated) : 2.1

Reported Ratio of COC(=O)[C@@H]1C2CCC(C[C@@H]1OC(=O)c1ccccc1)N2 (some centres not stated) : 1.6

Reported Ratio of CCc1ccc(C2CC3CCC(N3)C2C(=O)OC)cc1 (configuration not stated) : 6.1

Reported Ratio of CCCc1ccc(C2CC3CCC(N3)C2C(=O)OC)cc1 (configuration not stated) : 8.2

Reported Ratio of C=C(C)c1ccc(C2CC3CCC(C2C(=O)OC)N3C)cc1 (configuration not stated) : 4.6

Reported Ratio of C/C=C/c1ccc(C2CC3CCC(C2C(=O)OC)N3C)cc1 (configuration not stated) : 0.46

Reported Ratio of C=C(C)c1ccc(C2CC3CCC(N3)C2C(=O)OC)cc1 (configuration not stated) : 38

* * *

Target: UniProtKB Q9WTR4
Sequence (Q9WTR4 whole entry): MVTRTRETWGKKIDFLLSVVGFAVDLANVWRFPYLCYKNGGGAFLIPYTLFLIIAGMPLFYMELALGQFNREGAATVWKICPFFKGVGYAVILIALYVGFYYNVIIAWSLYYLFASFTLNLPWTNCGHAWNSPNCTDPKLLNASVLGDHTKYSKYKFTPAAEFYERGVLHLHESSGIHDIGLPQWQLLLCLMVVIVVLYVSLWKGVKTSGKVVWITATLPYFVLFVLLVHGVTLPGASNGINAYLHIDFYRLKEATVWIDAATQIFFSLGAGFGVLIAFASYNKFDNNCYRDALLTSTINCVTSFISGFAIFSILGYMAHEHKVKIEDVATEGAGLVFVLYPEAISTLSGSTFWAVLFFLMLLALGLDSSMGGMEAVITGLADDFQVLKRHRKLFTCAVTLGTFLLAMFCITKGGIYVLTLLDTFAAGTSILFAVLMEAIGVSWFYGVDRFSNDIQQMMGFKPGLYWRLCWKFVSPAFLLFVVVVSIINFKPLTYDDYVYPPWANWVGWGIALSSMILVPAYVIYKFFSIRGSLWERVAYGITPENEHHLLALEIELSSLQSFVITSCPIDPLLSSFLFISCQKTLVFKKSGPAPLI
The label is 1.0 for IC50 below 100 nM and 0.0 for IC50 equal to or exceeding 100 nM.

Here's an entry: C#Cc1ccc(C2CC3CCC(N3)C2C(=O)OC)cc1 (centres undefined) . Is its IC50 below 100 nM?
1.0

Here's an entry: C=Cc1ccc(C2CC3CCC(C2C(=O)OC)N3C)cc1 (centres undefined) . Is its IC50 below 100 nM?
1.0

Here's an entry: C/C=C/c1ccc(C2CC3CCC(C2C(=O)OC)N3C)cc1 (centres undefined) . Is its IC50 below 100 nM?
0.0

Here's an entry: C/C=C/c1ccc(C2CC3CCC(N3)C2C(=O)OC)cc1 (trans isomer) . Is its IC50 below 100 nM?
1.0

Here's an entry: COC(=O)C1C(c2ccc(C(C)C)cc2)CC2CCC1N2C (centres undefined) . Is its IC50 below 100 nM?
0.0

Here's an entry: CCc1ccc(C2CC3CCC(C2C(=O)OC)N3C)cc1 (centres undefined) . Is its IC50 below 100 nM?
0.0

Here's an entry: C=CCc1ccc(C2CC3CCC(N3)C2C(=O)OC)cc1 (centres undefined) . Is its IC50 below 100 nM?
1.0

Here's an entry: C/C=C\c1ccc(C2CC3CCC(C2C(=O)OC)N3C)cc1 (centres undefined) . Is its IC50 below 100 nM?
0.0

Here's an entry: CCc1ccc(C2CC3CCC(N3)C2C(=O)OC)cc1 (centres undefined) . Is its IC50 below 100 nM?
0.0

Here's an entry: CC#Cc1ccc(C2CC3CCC(N3)C2C(=O)OC)cc1 (centres undefined) . Is its IC50 below 100 nM?
0.0

Here's an entry: COC(=O)[C@@H]1C2CCC(C[C@@H]1OC(=O)c1ccccc1)N2 (some centres undefined) . Is its IC50 below 100 nM?
0.0

Here's an entry: CCCc1ccc(C2CC3CCC(C2C(=O)OC)N3C)cc1 (centres undefined) . Is its IC50 below 100 nM?
0.0

Here's an entry: C=CCc1ccc(C2CC3CCC(C2C(=O)OC)N3C)cc1 (centres undefined) . Is its IC50 below 100 nM?
0.0

Here's an entry: C=C(C)c1ccc(C2CC3CCC(N3)C2C(=O)OC)cc1 (centres undefined) . Is its IC50 below 100 nM?
0.0

* * *

Can you tell me Ratio for the items I'm about to list?
Biological target: Monoamine transporters; Norepinephrine & serotonin (Rattus norvegicus) (UniProt P31652+Q9WTR4)
Assay: Selectivity for norepinephrine and serotonin transporters
Format: protein assay
In your answer, state the number alone without any accompanying words.

Reported Ratio of CC#Cc1ccc(C2CC3CCC(N3)C2C(=O)OC)cc1 (centres undefined) : 37

Reported Ratio of C=C(C)c1ccc(C2CC3CCC(N3)C2C(=O)OC)cc1 (centres undefined) : 240

Reported Ratio of C#Cc1ccc(C2CC3CCC(C2C(=O)OC)N3C)cc1 (centres undefined) : 19

Reported Ratio of C/C=C\c1ccc(C2CC3CCC(C2C(=O)OC)N3C)cc1 (centres undefined) : 395

Reported Ratio of COC(=O)[C@@H]1C2CCC(C[C@@H]1OC(=O)c1ccccc1)N2 (some centres undefined) : 1.1

Reported Ratio of COC(=O)C1C(c2ccc(C(C)C)cc2)CC2CCC1N2C (centres undefined) : 392

Reported Ratio of C=Cc1ccc(C2CC3CCC(C2C(=O)OC)N3C)cc1 (centres undefined) : 8.2

Reported Ratio of CCCc1ccc(C2CC3CCC(N3)C2C(=O)OC)cc1 (centres undefined) : 21

Reported Ratio of COC(=O)C1C2CCC(CC1c1ccc(C(C)C)cc1)N2 (centres undefined) : 21

Source of measurements: ChEMBL document CHEMBL1129430
